experiment: NCI Yeast Anticancer Drug Screen. Data for the mec2-1 strain (AID 157); settings: S. cerevisiae mec2-1 strain, at 50.0 µM, hits give high values
The panel holds about 79,000 compounds, 15% with a hit somewhere; the sample as a whole holds those more often. Where a SMILES comes first, the peptide text is derived from it. [ ]: non-standard residue; d: D form. The star is where a group is joined. Nle = CCCC[CH](N)C(=O)O; Cbz = O=C(OCc1ccccc1)*; OBn = c1ccc(CO*)cc1

{"Molecule": "c1ccc(C(=C2C(=C(c3ccccc3)c3ccccc3)c3nc4ccccc4nc32)c2ccccc2)cc1", "Unit name": "%", "growth inhibition": 8.8}
{"Molecule": "CN(C)C(=O)C1OC1(C)c1ccccc1 (configuration not stated)", "Unit name": "%", "growth inhibition": -5.25}
{"Molecule": "O=C1CC2C=CC(O)C(C1)C2 (configuration not stated)", "Unit name": "%", "growth inhibition": 1.65}
{"Molecule": "CCCCCCC(=O)C(=O)O", "Unit name": "%", "growth inhibition": 37.8}
{"Molecule": "C[C@]12CCC(=O)C=C1CC[C@@H]1C2CC[C@]2(C)NC(=O)C(C#N)CC12 (some centres not stated)", "Unit name": "%", "growth inhibition": -10.2}
{"Molecule": "CCOC(=O)CC(C)C(C(=O)OCC)C(=O)OCC (configuration not stated)", "Unit name": "%", "growth inhibition": 6.15}
{"Molecule": "COC(=O)C1C=CN(N(C)C)C2=C1C(=O)c1c(O)cccc1C2=O (configuration not stated)", "Unit name": "%", "growth inhibition": 93}
{"Molecule": "O=C(Nc1ccccc1C(=O)O)C(=O)C(C(=O)c1ccccc1-c1ccccc1)C1OC(=O)c2ccccc21 (configuration not stated)", "Unit name": "%", "growth inhibition": 5.65}
{"Molecule": "CCCCC(NC(=O)C1CCCN1C(=O)OCc1ccccc1)C(=O)OCc1ccccc1 (stereo not drawn) (Cbz-Pro-[Nle]-OBn; configuration not given here)", "Unit name": "%", "growth inhibition": 12.2}
{"Molecule": "Cc1ccc(NC(=O)COc2cc(Cl)c(Cl)cc2Cl)cc1[N+](=O)[O-]", "Unit name": "%", "growth inhibition": -9.1}
{"Molecule": "BrCCCC1CCCCC1", "Unit name": "%", "growth inhibition": -41.7}
{"Molecule": "CNC(=O)c1n[nH]c(=S)[nH]c1=O", "Unit name": "%", "growth inhibition": -4.9}

----------
experiment: NCI Yeast Anticancer Drug Screen. Data for the cln2 rad14 strain (AID 165);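 note: 0% = growth equal to vehicle treated cultures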; details: S. cerevisiae cln2 rad14 strain, at 50.0 µM, hits give high values
About 79,000 compounds went through this panel and 15% of them were active in at least one assay; those are over-represented in the sample as a whole.
# label = MET if growth inhibition >= -10% else NOT MET

{"Molecule": "NC(=S)Cc1ccccn1", "Category label": "NOT MET"}
{"Molecule": "Cc1ccc(-c2nnc(-c3cccc4ccccc34)o2)cc1", "Category label": "MET"}
{"Molecule": "CCCCOc1ccccc1C(=O)OC", "Category label": "MET"}
{"Molecule": "CN(C)C=NC1CC(C)(C)NC(C)(C)C1", "Category label": "NOT MET"}
{"Molecule": "COc1cc(C)nc2ccc(Cc3ccc4nc(C)cc(OC)c4c3)cc12", "Category label": "NOT MET"}
{"Molecule": "COc1cccc(NC(=O)CC(=O)Nc2cccc(OC)c2)c1", "Category label": "NOT MET"}
{"Molecule": "Cc1ccc2c(c1)Cc1cc(C)ccc1-2", "Category label": "MET"}
{"Molecule": "Cc1ccc(NC(=O)COc2cc(Cl)c(Cl)cc2Cl)cc1[N+](=O)[O-]", "Category label": "MET"}
{"Molecule": "Cc1ccc([N+](=O)[O-])cc1NC(=O)C(=O)C1CCC2=C(Sc3ccccc3N2)C1=O (configuration not stated)", "Category label": "NOT MET"}
{"Molecule": "Cc1ccc(N(C(=O)CC(=O)N/N=C/c2ccccc2O)C(=O)c2ccccc2)cc1", "Category label": "MET"}
{"Molecule": "C=C(C)C#CC1(O)C=C(OC)C(OC)=CC1=O (configuration not stated)", "Category label": "NOT MET"}
{"Molecule": "Cc1cc(C)c(C#N)c(N)n1", "Category label": "NOT MET"}
{"Molecule": "COCC(=O)Oc1ccc[nH]c1=O", "Category label": "NOT MET"}
{"Molecule": "N=c1nccnn1O", "Category label": "MET"}
{"Molecule": "CC1=NNC(=O)C1CCS (configuration not stated)", "Category label": "MET"}
{"Molecule": "NC(=O)c1nsc(-c2ccc([N+](=O)[O-])cc2)c1N", "Category label": "MET"}
{"Molecule": "CCCCCCn1ncc(=O)[nH]c1=O", "Category label": "NOT MET"}
{"Molecule": "NCC(O)C(F)(F)F (configuration not stated)", "Category label": "NOT MET"}
{"Molecule": "CCCC(C)OC(=O)Nc1cccc(O)c1 (configuration not stated)", "Category label": "NOT MET"}
{"Molecule": "Cc1cccc2c1CCC21OC(=O)c2c1cc(F)c1ccccc21 (configuration not stated)", "Category label": "MET"}
{"Molecule": "Cc1ccc(CNC(=O)NCCCCCCNC(=O)NCc2ccc(C)cc2)cc1", "Category label": "NOT MET"}
{"Molecule": "NNC(=O)C1CC1", "Category label": "MET"}
{"Molecule": "CC(=O)CCC(CCCC(CCC(C)=O)[N+](=O)[O-])[N+](=O)[O-] (configuration not stated)", "Category label": "MET"}
{"Molecule": "CC(C)(C)NC(=O)CCC1C(C(=O)NC(C)(C)C)C2(Cl)C(Cl)=C(Cl)C1(Cl)C2(Cl)Cl (configuration not stated)", "Category label": "MET"}
{"Molecule": "O=C(Nc1cccc2c1C(=O)c1cc(Cl)ccc1C2=O)c1ccccc1", "Category label": "NOT MET"}
{"Molecule": "COc1cc(C(CC#N)CC#N)cc(OC)c1OC", "Category label": "MET"}
{"Molecule": "COCCCNc1nc(N)c(C#N)c(C#N)c1C#N", "Category label": "MET"}
{"Molecule": "CN(C)C(=O)C1OC1(C)c1ccccc1 (configuration not stated)", "Category label": "NOT MET"}
{"Molecule": "CCS(=O)O", "Category label": "MET"}
{"Molecule": "CCCCC1CCC(=O)NC1=O (configuration not stated)", "Category label": "MET"}
{"Molecule": "CCOC(=O)C(NC(C)=O)C(O)c1ccc(C(C)C)cc1 (configuration not stated)", "Category label": "NOT MET"}
{"Molecule": "O=c1n(-c2ccccc2)c(=O)n2n1C1C3C4C3C2C2(F)C4C12 (configuration not stated)", "Category label": "MET"}
{"Molecule": "CCCC(O)C(C)(C)[N+](=O)[O-] (configuration not stated)", "Category label": "MET"}
{"Molecule": "C=COC(=O)c1ccccc1O", "Category label": "MET"}
{"Molecule": "CCOC(=O)c1nc2c(Cl)c3ncccc3cc2[nH]c1=O", "Category label": "MET"}
{"Molecule": "CCCCCCCCCCCC(=O)N(C)CCS(=O)(=O)O", "Category label": "MET"}
{"Molecule": "O=C(Nc1nc(C23CC4CC(CC(C4)C2)C3)cs1)c1cc2cc(Br)cc(Br)c2oc1=O", "Category label": "MET"}
{"Molecule": "CN(CC(=O)O)C(=N)N", "Category label": "MET"}
{"Molecule": "Cc1cc(N)c2cc(N)ccc2n1", "Category label": "MET"}
{"Molecule": "CCOC(=O)C1C(c2ccc(Cl)cc2Cl)NC(c2ccc(C)cc2)C(C(=O)OC)S1(=O)=O (configuration not stated)", "Category label": "MET"}
{"Molecule": "O=C(Nc1ccc(Cl)cc1C(F)(F)F)C(=O)Nn1c(=S)[nH]c2ccccc2c1=O", "Category label": "MET"}
{"Molecule": "CSC(=S)N/N=C(\\c1ccccc1)c1ccccn1", "Category label": "MET"}
{"Molecule": "N#CCCN(CCC#N)C(Cc1cn(CCC#N)cn1)C(=O)O (configuration not stated)", "Category label": "NOT MET"}
{"Molecule": "CCNC(=O)N(C)Cc1ccc(Cl)cc1", "Category label": "NOT MET"}
{"Molecule": "CCCS(=O)(=O)CCCCCCCCCCC(=O)O", "Category label": "NOT MET"}
{"Molecule": "CSCCC(N)C(=O)NCCNc1ccc(NCCNC(=O)C(N)CCSC)c2c1C(=O)c1ccccc1C2=O (configuration not stated)", "Category label": "MET"}
{"Molecule": "COC(=O)NS(=O)(=O)C1=Cc2cccc3cccc1c23", "Category label": "MET"}
{"Molecule": "CCOC(=O)c1cn(CC)c2cc3c(cc2c1=O)SCS3", "Category label": "MET"}
{"Molecule": "CCCCCCCCCCCCCCC(CCCCCCCCCCCCCC)c1ccccc1", "Category label": "NOT MET"}
{"Molecule": "CCOc1snc(C(Cl)(Cl)Cl)c1Cl", "Category label": "MET"}
{"Molecule": "O=CNC1(CO)CCCCC1", "Category label": "NOT MET"}

Provenance of the data: PubChem BioAssay (NCI)
